- tested-system: stearoyl-CoA desaturase (SCD) (Rattus norvegicus)
- procedure-details: SCD assay in rat liver microsomes ([3H]stearoyl CoA desaturation, adapted from Talamo and Bloch)
- assay-conditions: rat liver microsomes 0.2 mg/ml assay final, 30 min preincubation, 45 min reaction, room temperature
- Experimental: The identification of compounds of the invention as SCD inhibitors was readily accomplished using the SCD enzyme and microsomal assay procedure described in Talamo and Bloch (1969) Analytical Biochemistry 29:300-304. […] The protein concentration of the microsomal preparation was determined by BCA assay (Pierce) and the microsomes were aliquoted and stored at −80° C. […] SCD was determined in the desaturase assay buffer. […]
# IC50 per entry
Could you kindly put the unit after your number?

Solved entries (count: 3):
INSERT INTO measurements (compound_structure_string, measurement_kind, result) VALUES
  ('CC(=O)NCCn1c(=O)cnc2cnc(NCc3ccc(Cl)c(Cl)c3)nc21', 'IC50', '340 nM'),
  ('COc1ccc(-c2nc3cnc(NCc4ccc(Cl)c(Cl)c4)nc3n(CCNC(C)=O)c2=O)cc1', 'IC50', '160 nM'),
  ('C/C=C/C(=O)NCCn1c(=O)c(-c2ccc(OC)cc2)nc2cnc(NCc3ccc(Cl)c(Cl)c3)nc21', 'IC50', '470 nM');

Now, please, on to the next compound.
IN: Supply measured IC50 of `COc1ccc(-c2nc3cnc(NCc4ccc(Cl)c(Cl)c4)nc3n([C@@H]3CCNC3)c2=O)cc1` in your reply.
OUT: 5000 nM

* * *

# pIC50 per entry
- tested-system: stearoyl-CoA desaturase (SCD) (Rattus norvegicus, UniProt P07308)
- Construct: from tissue; host or cells: liver microsomes of male Sprague Dawley rats, with SCD induced by a carbohydrate-rich diet after fasting/feeding cycles
- Sequence (P07308 1-358): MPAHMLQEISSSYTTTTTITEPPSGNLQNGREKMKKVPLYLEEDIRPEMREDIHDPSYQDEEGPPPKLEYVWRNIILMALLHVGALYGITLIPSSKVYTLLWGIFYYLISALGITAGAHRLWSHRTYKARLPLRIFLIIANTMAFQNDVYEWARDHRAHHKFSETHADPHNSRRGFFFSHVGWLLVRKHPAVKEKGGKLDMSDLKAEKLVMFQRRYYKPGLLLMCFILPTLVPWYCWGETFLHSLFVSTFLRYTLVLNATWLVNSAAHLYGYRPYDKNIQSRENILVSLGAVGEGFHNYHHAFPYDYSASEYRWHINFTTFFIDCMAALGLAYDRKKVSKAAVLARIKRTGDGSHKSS
- procedure-details: SCD assay in rat liver microsomes ([3H]stearoyl CoA desaturation, adapted from Talamo and Bloch)
- Format: biochemical
- assay-conditions: rat liver microsomes 0.2 mg/ml assay final, 30 min preincubation, 45 min reaction, room temperature
API: returns pIC50 as number; meaning -log10 of concentration in mol/L.

INSERT INTO assay_data (compound_structure_string, tested_system, numeric_readout) VALUES
  ('CC(=O)NCCn1c(=O)c(C(F)(F)F)nc2cnc(NCc3ccc(Cl)c(Cl)c3)nc21', 'stearoyl-CoA desaturase (SCD) (Rattus norvegicus, UniProt P07308)', 5.68),
  ('O=C(NCCn1c(=O)cnc2cnc(NCc3ccc(Cl)c(Cl)c3)nc21)c1ccsc1', 'stearoyl-CoA desaturase (SCD) (Rattus norvegicus, UniProt P07308)', 5.21),
  ('CC(=O)NCCn1c(=O)c(-c2cccnc2)nc2cnc(NCc3ccc(Cl)c(Cl)c3)nc21', 'stearoyl-CoA desaturase (SCD) (Rattus norvegicus, UniProt P07308)', 6.64);

IN: Supply measured pIC50 of `CC(=O)NCCn1c(=O)c(C(F)(F)F)nc2cnc(NCc3ccc(F)cc3)nc21` in your reply.
OUT: 4.66
